Taken from ChEMBL document CHEMBL5724914.

Details: human gut metagenome, 24 h, 2 µM; also: call rule not given here
measurement_name: Bacterial Biotransformation

Recorded Bacterial Biotransformation, per entry:
[[record]]
compound = "OC(c1cc(C(F)(F)F)nc2c(C(F)(F)F)cccc12)C1CCCCN1 (stereo not drawn)"
measurement_name = "Bacterial Biotransformation"
measured_result = "Compound metabolized"

[[record]]
compound = "COC(=O)C(c1ccccc1)C1CCCCN1 (stereo not drawn) [METHYLPHENIDATE]"
measurement_name = "Bacterial Biotransformation"
measured_result = "Compound metabolized"

[[record]]
compound = "CN(CCOc1ccc(CC2SC(=O)NC2=O)cc1)c1ccccn1.O=C(O)/C=C\\C(=O)O (stereo not drawn) [ROSIGLITAZONE MALEATE]"
measurement_name = "Bacterial Biotransformation"
measured_result = "Compound metabolized"

[[record]]
compound = "Cc1cc(C)cc(OCC2CNC(=O)O2)c1 (stereo not drawn)"
measurement_name = "Bacterial Biotransformation"
measured_result = "Compound metabolized"

[[record]]
compound = "CN(C/C=C/C#CC(C)(C)C)Cc1cccc2ccccc12"
measurement_name = "Bacterial Biotransformation"
measured_result = "Compound NOT metabolized"


For the compound Br.CN1CCC[C@@H]1Cc1c[nH]c2ccc(CCS(=O)(=O)c3ccccc3)cc12 [ELETRIPTAN HYDROBROMIDE] , give its reported Bacterial Biotransformation. Compound metabolized

Specify Bacterial Biotransformation for CCN(C)C(=O)Oc1cccc([C@H](C)N(C)C)c1.O=C(O)C(O)C(O)C(=O)O [RIVASTIGMINE TARTRATE] and stop. Compound NOT metabolized

Give the reported value of Bacterial Biotransformation for this record: "CC#CCn1c(N2CCC[C@@H](N)C2)nc2c1c(=O)n(Cc1nc(C)c3ccccc3n1)c(=O)n2C" Compound NOT metabolized
